Data origin: paper PMC10044245

# Tested on: S. aureus
# test.summary: microbe, parasite or virus in culture
# Assay type: cell-based, Staphylococcus aureus
# run.parameters: Staphylococcus aureus; 96-well plate, serial dilutions, 32 °C, 13–18 h, 200 rpm, OD 550 nm
reported.metric: MIC (µg/mL)
Provide the reading as a plain figure in µg/mL.

Answered examples (4):
Lab note: CNC(C)C1CCC(N)C(OC2C(N)CC(N)C(OC3OCC(C)(O)C(NC)C3O)C2O)O1 (centres unmarked) [Gentamicin, gentamicin, reference compound] gave MIC of 0.25

Lab note: CC[C@H]1OC(=O)[C@H](C)[C@@H](O[C@H]2C[C@@](C)(OC)[C@@H](O)[C@H](C)O2)[C@H](C)[C@@H](O[C@@H]2O[C@H](C)C[C@H](N(C)C)[C@H]2O)[C@](C)(OC)C[C@@H](C)C(=O)[C@H](C)[C@@H](O)[C@]1(C)O [Claritromycin, clarithromycin, reference compound] gave MIC of 0.25

Lab note: CC[C@H]1OC(=O)[C@H](C)[C@@H](O[C@H]2C[C@@](C)(OC)[C@@H](O)[C@H](C)O2)[C@H](C)[C@@H](O[C@@H]2O[C@H](C)C[C@H](N(C)C)[C@H]2O)[C@](C)(O)C[C@@H](C)CN(C)[C@H](C)[C@@H](O)[C@]1(C)O [Azythromycin, Azithromycin dihydrate, reference compound] gave MIC of 0.5

Lab note: O=C(OOC(=O)c1ccccc1)c1ccccc1 [Benzoyl peroxide, reference compound] gave MIC of 1250

Let us move to another entry and its MIC.
Lab note: [H]/N=C(\N/C(=N/[H])NCCCCCCNC(=N)NC(=N)Nc1ccc(Cl)cc1)Nc1ccc(Cl)cc1 [Chlorhexidine, chlorhexidine, reference compound] gave MIC of 1
